- TARGET_DESC: T1, DPPIV expressed on HEK293 or CHO cells (Homo sapiens (Human), UniProt P27487 1-766)
- T1 construct: also called close homologue of FAP
- ASSAY_DETAILS: binding to DPPIV-expressing HEK293 or CHO cells
RESULT_TYPE: binding result

4B9 Fab (Fab, V domains shown, also called clone 4B9) VH: EVQLLESGGGLVQPGGSLRLSCAASGFTFSSYAMSWVRQAPGKGLEWVSAIIGSGASTYYADSVKGRFTISRDNSKNTLYLQMNSLRAEDTAVYYCAKGWFGGFNYWGQGTLVTVSS VL: EIVLTQSPGTLSLSPGERATLSCRASQSVTSSYLAWYQQKPGQAPRLLINVGSRRATGIPDRFSGSGSGTDFTLTISRLEPEDFAVYYCQQGIMLPPTFGQGTKVEIK :: no binding
5F1 Fab (Fab, V domains shown, also called clone 5F1) VH: EVQLLESGGGLVQPGGSLRLSCAASGFTFSSYAMSWVRQAPGKGLEWVSAIISSGASTYYADSVKGRFTISRDNSKNTLYLQMNSLRAEDTAVYYCAKGWFGGFNYWGQGTLVTVSS VL: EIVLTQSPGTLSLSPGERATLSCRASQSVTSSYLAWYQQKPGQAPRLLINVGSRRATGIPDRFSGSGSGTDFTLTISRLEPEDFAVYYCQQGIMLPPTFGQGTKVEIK :: no binding
28H1 Fab (Fab, V domains shown, also called clone 28H1) VH: EVQLLESGGGLVQPGGSLRLSCAASGFTFSSHAMSWVRQAPGKGLEWVSAIWASGEQYYADSVKGRFTISRDNSKNTLYLQMNSLRAEDTAVYYCAKGWLGNFDYWGQGTLVTVSS VL: EIVLTQSPGTLSLSPGERATLSCRASQSVSRSYLAWYQQKPGQAPRLLIIGASTRATGIPDRFSGSGSGTDFTLTISRLEPEDFAVYYCQQGQVIPPTFGQGTKVEIK :: no binding
